Tested on: APAE001 (ATCC27853)
Experiment: MIC broth microdilution, APAE001
Assay type: cell-based, P. aeruginosa
Conditions: Pseudomonas aeruginosa, ATCC27853, read-out: MIC APAE001, APAE001 is ATCC27853
Method: Bacterial isolates were cultivated from −70° C. frozen stocks by overnight passages at 35° C. in ambient air on Mueller-Hinton agar (Beckton Dickinson, Franklin Lakes, N.J.). […] Minimum Inhibitory Concentrations (MICs) were determined by the broth microdilution method in accordance with the Clinical and Laboratory Standards Institute (CLSI) guidelines. […]
measurement type: MIC

INSERT INTO assay_data (smiles_entry, subject_of_test, result) VALUES
  ('C[C@@H](N)[C@H](NC(=O)c1ccc(C#C/C=C/c2ccccc2)cc1)C(=O)NO', 'APAE001 (ATCC27853)', '< 2 mg/L'),
  ('O=C(N[C@H](C(=O)NO)c1ccccc1)c1ccc(C#Cc2ccc(CN3CCOCC3)cc2)cc1', 'APAE001 (ATCC27853)', '2 to 16 mg/L'),
  ('O=C(N[C@H](C(=O)NO)c1cccs1)c1ccc(C#Cc2ccc(CN3CCOCC3)cc2)cc1', 'APAE001 (ATCC27853)', '2 to 16 mg/L'),
  ('NC[C@H](NC(=O)c1ccc(C#C/C=C/c2ccc(CO)cc2)cc1)C(=O)NO', 'APAE001 (ATCC27853)', '2 to 16 mg/L');

---

MIC listing for selected compounds.
system: APAE001 (ATCC27853); assay: MIC broth microdilution, APAE001; assay type: cell-based, P. aeruginosa; conditions: Pseudomonas aeruginosa, ATCC27853, read-out: MIC APAE001, APAE001 is ATCC27853
measurement type: MIC

INSERT INTO results (compound, subject_of_test, measurement_type, result) VALUES
  ('NC[C@H](NC(=O)c1ccc(/C=C/C#Cc2ccc(CO)cc2)cc1)C(=O)NO [Example 112-2]', 'APAE001 (ATCC27853)', 'MIC', '2 to 16 mg/L'),
  ('CO[C@H](C)[C@H](NC(=O)c1ccc(/C=C/C#Cc2ccc(CNC3CC3)cc2)cc1)C(=O)NO [Example 113-7]', 'APAE001 (ATCC27853)', 'MIC', '2 to 16 mg/L'),
  ('Cn1cncc1C#CC#Cc1ccc(C(=O)N[C@H](C(=O)NO)C(C)(C)O)cc1 [Example 88-10]', 'APAE001 (ATCC27853)', 'MIC', '2 to 16 mg/L'),
  ('C[C@@H](O)[C@H](NC(=O)c1ccc(C#C/C=C/c2ccc(CO)cc2)cc1)C(=O)NO [Example 101-1]', 'APAE001 (ATCC27853)', 'MIC', '2 to 16 mg/L'),
  ('CC(C)(O)[C@H](NC(=O)c1ccc(C#C/C=C/c2ccc(CN3CCOCC3)cc2)cc1)C(=O)NO [Compound 97-2]', 'APAE001 (ATCC27853)', 'MIC', '< 2 mg/L'),
  ('CO[C@H](C)[C@H](NC(=O)c1ccc(C#C/C=C/c2ccc(CN3CCOCC3)cc2)cc1)C(=O)NO [Example 97-1]', 'APAE001 (ATCC27853)', 'MIC', '2 to 16 mg/L'),
  ('C[C@@H](N)[C@H](NC(=O)c1ccc(C#Cc2ccc(CNC3CC3)cc2)cc1)C(=O)NO [Example 115-2]', 'APAE001 (ATCC27853)', 'MIC', '< 2 mg/L');

Data provenance is patent US9617256B2.
